assay: NCI Yeast Anticancer Drug Screen. Data for the rad50 strain (AID 155);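 also: 0% = growth of vehicle-only cultures of the same strain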
experimental_context: S. cerevisiae rad50 strain growth inhibition; at 50.0 µM; stronger effect = higher value
Protocol: Growth inhibition of yeast strains with defined genetic alterations is measured as a screen for potential anti-cancer activity. Selected strains with alterations in DNA damage repair or cell cycle control were exposed to compounds and growth inhibition was measured relative to vehicle treated controls. The strain used in this assay is rad50
The panel holds about 79,000 compounds, 15% with a hit somewhere; the sample as a whole holds those more often.
Documented growth inhibition across a set of compounds
Give just the number in %; leave the unit off.

-- ask Retrieve growth inhibition measured for COc1ccc(CNc2ccccc2)cc1 and print it.
-- reply -2

-- ask Retrieve growth inhibition measured for CC1=C(C(=O)OCCO[N+](=O)[O-])C(c2ccccc2C(F)(F)F)C(C(=O)OC(C)C)=C(C)N1 (centres undefined) and print it.
-- reply 45.5

-- ask Retrieve growth inhibition measured for CC(C)=CCc1c(O)ccc(C(=O)[C@H]2C(c3ccc(O)cc3O)CC(C)=C[C@@H]2c2c(O)cc(O)c3c(=O)c(CC=C(C)C)c(-c4ccc(O)cc4O)oc23)c1O (some centres undefined) and print it.
-- reply 88.4

-- ask Retrieve growth inhibition measured for NC(=S)N/N=C\c1nccc2ccc(N)cc12 and print it.
-- reply 36

-- ask Retrieve growth inhibition measured for COc1cc2c(cc1OC)C(c1ccccc1)ON(C)CC2 (centres undefined) and print it.
-- reply -4.15

-- ask Retrieve growth inhibition measured for O=C(Nc1ccc(C2=NCCN2)cc1)c1cncc(C(=O)Nc2ccc(C3=NCCN3)cc2)c1 and print it.
-- reply 5.2

-- ask Retrieve growth inhibition measured for CCc1nc2c([nH]1)C(=O)c1ccccc1C2=O and print it.
-- reply 68.1

-- ask Retrieve growth inhibition measured for COc1cc(C(=O)Oc2c(C(C)=O)sc3c2c(=O)n(-c2ccccc2)c(=S)n3-c2ccccc2)cc(OC)c1OC and print it.
-- reply 19.7

-- ask Retrieve growth inhibition measured for COC1OC(COS(=O)(=O)c2ccc(C)cc2)C(OS(=O)(=O)c2ccc(C)cc2)C1OCc1ccccc1 (centres undefined) and print it.
-- reply -2.35

// provenance: PubChem BioAssay (NCI)
